All figures here come from paper PMC8041433.

# maps each entry to its IC50
biological target: AChE in neural stem cell spheroids (Homo sapiens, UniProt P22303); assay: cell-based; details: potency (IC50), Neural stem cell spheroid (48 h)
Sequence (P22303 32-614): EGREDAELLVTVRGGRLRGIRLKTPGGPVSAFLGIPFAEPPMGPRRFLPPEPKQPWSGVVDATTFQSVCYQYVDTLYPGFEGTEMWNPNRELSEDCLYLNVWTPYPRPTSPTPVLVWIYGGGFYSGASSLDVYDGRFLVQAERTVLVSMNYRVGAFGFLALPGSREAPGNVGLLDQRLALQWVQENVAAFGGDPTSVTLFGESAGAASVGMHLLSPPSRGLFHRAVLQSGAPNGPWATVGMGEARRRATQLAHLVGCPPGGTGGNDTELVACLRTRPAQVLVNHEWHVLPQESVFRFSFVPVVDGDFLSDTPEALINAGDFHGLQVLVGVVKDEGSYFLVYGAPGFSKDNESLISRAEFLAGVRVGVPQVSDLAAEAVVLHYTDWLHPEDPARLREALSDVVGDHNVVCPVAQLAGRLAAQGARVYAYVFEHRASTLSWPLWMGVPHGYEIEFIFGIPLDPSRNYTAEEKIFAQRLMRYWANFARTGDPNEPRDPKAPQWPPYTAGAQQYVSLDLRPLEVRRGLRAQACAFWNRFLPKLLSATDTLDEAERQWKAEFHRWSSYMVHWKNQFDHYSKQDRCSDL
Numeric answer only, unit µM assumed.

// query Could you tell me which IC50 is on file for CCN1CCC2(CC1)COc1cc3c(cc12)N(C(=O)c1ccc(-c2ccc(-c4nnc(C)o4)cc2C)cc1)CC3.Cl [SB236057A] ?
// result 4.03

// query Dear colleague, I am looking for the recorded IC50 of the following molecule: COP(N)(=S)Oc1ccccc1C(=O)OC(C)C (centres unmarked)
// result 23.1

// query Can you look up the measured IC50 of `COP(=O)(OC)SCn1c(=O)oc2cc(Cl)cnc21` for me?
// result 3.08

// query State the recorded IC50 for this entry: `Cl.Clc1cc(Cl)c2c(c1)N=C1CCCCCN1C2`
// result 22

// query # IC50 lookup, item `CCOP(=S)(OCC)O/N=C(\C#N)c1ccccc1`
// result 0.4

* * *

target: AChE in SH-SY5Y cells (Homo sapiens); experiment: cell-based
Structures can show the parent of a compound that is named as a salt.
readout.label: CC-v2 (curve classes)
Just the number, please, no unit attached.

Solved cases below.
>>> data_value("COc1ccc(OC(F)(F)F)cc1CN[C@H]1CCCN[C@H]1c1ccccc1 [CP-122721, reference compound]")
4
>>> data_value("N=C(N)NC(=O)c1nc(Cl)c(N)nc1N [Amiloride hydrochloride]")
-2.1
>>> data_value("COCCCN1CCC(NC(=O)c2cc(Cl)c(N)c3c2OCC3)CC1 [Prucalopride]")
-2.1

Next compound, CC-v2 (curve classes) to be filled in.
// query If you can, please state the reported CC-v2 (curve classes) value of CCN(C(=O)c1cc(C)cc(OC[C@H](C)Nc2ccncc2)c1)C(C)C.Cc1ccc(S(=O)(=O)O)cc1 [GW473178E methyl benzene sulfonic acid] .
// result -1.1

* * *

Structures can show the parent of a compound that is named as a salt.
Target or system recombinant human AChE (Homo sapiens); recorded quantity CC-v2 (curve classes).
Form: value (number only, do not type unit).

// query Tell me the measured CC-v2 (curve classes) of CCN1CCCC1CNC(=O)c1cc(S(=O)(=O)CC)c(N)cc1OC (centres unmarked) [Amisulpride, reference compound] , please.
// result -2.4

// query Would you kindly share the measured CC-v2 (curve classes) for `CCSCc1ccccc1OC(=O)NC` ?
// result 4

// query Field request: CC-v2 (curve classes) | item: CCOC(=O)COc1ccc2c(C)c(CCN(CC)CC)c(=O)oc2c1Cl.Cl [Cloricromen hydrochloride]
// result 4

// query Which CC-v2 (curve classes) reading was recorded for the compound `Cc1ccc(CCn2c3c(c4cc(Cl)ccc42)CN(C)CC3)cn1` ?
// result 4

// query Given the compound CCCN[C@H]1CCc2nc(N)sc2C1 [Pramipexole dihydrochloride monohydrate] , what is its reported CC-v2 (curve classes)?
// result 4

// query Query (compound): `CNC(=O)Oc1cc(C)cc(C(C)C)c1` ; field requested: CC-v2 (curve classes)
// result -1.1

// query What measured CC-v2 (curve classes) goes with `CS/C(C)=N\OC(=O)N(C)SN(C)C(=O)O/N=C(\C)SC` ?
// result -2.1

// query If you can, please state the reported CC-v2 (curve classes) value of [H]/N=C(\N/C(=N/[H])NCCCCCCNC(=N)NC(=N)Nc1ccc(Cl)cc1)Nc1ccc(Cl)cc1 [Chlorhexidine diacetate, reference compound] .
// result 4

* * *

molecular target: recombinant human AChE (Homo sapiens, UniProt P22303); assay: biochemical; conditions: potency (IC50), Enzyme with microsomes
Rule: measured IC50 below 20 µM gets YES; anything equal to or greater than 20 µM gets NO.

// query Quick check: IC50 of CCc1ccc(C(=O)C(C)CN2CCCCC2)cc1.Cl (stereo not drawn) [Eperisone hydrochloride, reference compound] under 20 µM?
// result NO

// query Dear reviewer, please state whether `CCOP(=S)(OCC)Oc1cc(-c2ccccc2)on1` has IC50 strictly beneath 20 µM.
// result YES

// query Would you kindly verify if IC50 of COc1ccc(C(=O)NCc2ccc(OCCN(C)C)cc2)cc1OC.Cl [Itopride hydrochloride, reference compound] is strictly less than 20 µM?
// result YES

// query Bench note: check whether `CCCCN(CCCC)SN(C)C(=O)Oc1cccc2c1OC(C)(C)C2` shows IC50 below 20 µM
// result YES

// query Regarding `CNC(=O)ON=C(C)SC` , kindly confirm whether its IC50 is beneath 20 µM.
// result YES

// query Hello, is IC50 of the following compound strictly smaller than 20 µM? O=C(Nc1cccc(C2=NCCN2)c1)Nc1cccc(C2=NCCN2)c1 [Imidocarb dipropionate, reference compound]
// result NO

* * *

molecular target: AChE in SH-SY5Y spheroids (Homo sapiens, UniProt P22303); assay: cell-based; conditions: potency (IC50), SH-SY5Y spheroids (48 h)
Sequence (P22303 32-614): as above
Recorded pIC50 values for a group of molecules are listed next.
In simple prose, pIC50 is minus the logarithm base ten of a concentration in moles per litre.

A selection of reference data follows.
>>> data_value("Cc1ccc2c(n1)Oc1ccc(C(C)C(=O)OCC(=O)N(C)C)cc1C2 (stereo not shown) [Mepranoprofen arbamel, reference compound]")
4.74
>>> data_value("CCOP(=S)(OCC)Oc1cc(C)nc(C(C)C)n1 [Diazinon]")
4.70
>>> data_value("CNC(=C[N+](=O)[O-])NCCSCc1csc(CN(C)C)n1 [Nizatidine, reference compound]")
4.91
>>> data_value("CNC(=O)Oc1ccc(N(C)C)c(C)c1 [Aminocarb]")
5.16
>>> data_value("CCOP(=S)(OCC)SCSP(=S)(OCC)OCC [Ethion]")
4.37
>>> data_value("CCOP(=S)(OCC)SCn1nnc2ccccc2c1=O [Azinphos-ethyl]")
4.92
>>> data_value("CNC(=O)Oc1cc(C)cc(C(C)C)c1 [Promecarb]")
6.17
>>> data_value("CNC(=O)ON=C(C)SC [Methomyl]")
5.42
>>> data_value("CS/C(C)=N\\OC(=O)N(C)SN(C)C(=O)O/N=C(\\C)SC [Thiodicarb]")
5.58
>>> data_value("O=c1[nH]c2ccc([S+]([O-])CCN3CCC(Cc4ccc(F)cc4)CC3)cc2o1 (stereo not shown) [Besonprodil, reference compound]")
5.13

// query Fill in: pIC50 of CCOC(=O)CC(SP(=O)(OC)OC)C(=O)OCC (stereo not shown) [Malaoxon] is ___
// result 5.40

* * *

Reported CC-v2 (curve classes) values for the following compounds.
target: recombinant human AChE (Homo sapiens); experiment: biochemical
Where a name gives a salt, the structure may show the parent alone.
# respond with the number and nothing more

>>> data_value("Oc1ccc(C(O)CNCCCCCCNCC(O)c2ccc(O)c(O)c2)cc1O (stereo not shown) [Hexoprenaline sulfate]")
4
>>> data_value("CCOP(=S)(OCC)SCSCC [Phorate]")
4

// query Looking for the measured CC-v2 (curve classes) of COc1cc(C(=O)NCc2ccc(OCCN(C)C)cc2)cc(OC)c1OC [Trimethobenzamide hydrochloride] , can you help?
// result -1.1

// query Form field: reported CC-v2 (curve classes) of COP(=O)(OC)O/C(C)=C/C(=O)N(C)C [Dicrotophos]
// result -2.2

* * *

target: recombinant human AChE (Homo sapiens, UniProt P22303); assay: biochemical
Recorded IC50, one value per entry.
Reply numerically in µM, unit not repeated.

Past entries and their recorded results:
>>> data_value("CCOP(=S)(OCC)OC(Cl)C(Cl)(Cl)Cl (centres unmarked)")
65.2
>>> data_value("CCOP(=S)(OCC)SC(CCl)N1C(=O)c2ccccc2C1=O (centres unmarked)")
28.1
>>> data_value("CN1C[C@H](CNC(=O)OCc2ccccc2)C[C@@H]2c3cccc4c3c(cn4C)C[C@H]21 [Metergoline, reference compound]")
20.9
>>> data_value("Cc1ccc2c(n1)Oc1ccc(C(C)C(=O)OCC(=O)N(C)C)cc1C2 (centres unmarked) [Mepranoprofen arbamel, reference compound]")
24.3

// query Requested read-out: IC50. Entry: COP(N)(=S)Oc1ccccc1C(=O)OC(C)C (centres unmarked)
// result 55.9

* * *

target: AChE in SH-SY5Y cells (Homo sapiens); assay: cell-based; conditions: IC50 (uM)
Structures can show the parent of a compound that is named as a salt.
readout.label: IC50 (µM)
Response body: numeric value in µM, unit text excluded.

// query Sample `Cc1nc(N(C)C)nc(OC(=O)N(C)C)c1C` — what was its IC50?
// result 11.2

// query I am curious: what IC50 value has been reported for CCc1ccc(C(=O)C(C)CN2CCCCC2)cc1.Cl (stereo not shown) [Eperisone hydrochloride, reference compound] ?
// result 15.5

// query Could you share which IC50 value was measured for N=C(N)NC(=O)c1nc(Cl)c(N)nc1N [Amiloride hydrochloride] ?
// result 32.9

// query Given CCCCC(CC)CNC(=N)NC(=N)NCCCCCCNC(=N)NC(=N)NCC(CC)CCCC (stereo not shown) [Alexidine dihydrochloride] , state its recorded IC50.
// result 43.6
